- system_name: Insulin receptor (Homo sapiens)
- condition_context: at 10 µM
Kindly apply the following: condition met if residual activity is less than 80%, condition not met in every other case.

smiles_repr: N#C/C(=C\c1ccc(O)c(O)c1)C(=O)NCc1ccccc1
class_assignment: condition not met
--
smiles_repr: CC(C)(C)n1nc(Cc2cccc3ccccc23)c2c(N)ncnc21
class_assignment: condition met
--
smiles_repr: CN(C)S(=O)(=O)c1ccc2c(c1)/C(=C/c1cc3c([nH]1)CCCC3)C(=O)N2
class_assignment: condition not met
--
smiles_repr: O=C1NC(=O)C(c2cn(CCCO)c3ncccc23)=C1c1cnccn1
class_assignment: condition not met
--
smiles_repr: O=C(O)/C=C/c1cc(Br)c(Br)c(Br)c1Br
class_assignment: condition not met
--
smiles_repr: COc1ccc2c(c1)c(C1=C(c3c[nH]c4ccccc34)C(=O)NC1=O)cn2CCCN(C)C
class_assignment: condition met
--
smiles_repr: Nc1ncnc2c1c(-c1ccc(Oc3ccccc3)cc1)cn2C1CCCC1
class_assignment: condition met
--
smiles_repr: CCCCc1c(-c2ccc(OC)cc2)[nH]c2nccnc12
class_assignment: condition met
--
smiles_repr: O=C(Nc1ccc(Cl)cc1)c1ccccc1NCc1ccncc1
class_assignment: condition not met
--
smiles_repr: NCCNc1ncc(C(N)=O)c(Nc2cccc(C(F)(F)F)c2)n1
class_assignment: condition met
--
smiles_repr: CC(C)c1nn(-c2c(Cl)cccc2Cl)c2nc(Cc3ccc(OCCO)cc3)[nH]c(=O)c12
class_assignment: condition not met
--
smiles_repr: O=c1cc(N2CCOCC2)oc2c1ccc1ccccc12
class_assignment: condition not met
--
smiles_repr: CCCC(=O)Oc1ccc2[nH]c(C(=O)c3cc4ccccc4[nH]3)cc2c1
class_assignment: condition not met
--
smiles_repr: Nc1ncnc2[nH]nc(Nc3ccc(F)cc3)c12
class_assignment: condition not met
--
smiles_repr: Cn1sc(=O)n(Cc2ccccc2)c1=O
class_assignment: condition not met

###

- system_name: Ephrin type-A receptor 2 (Homo sapiens) (UniProt P29317)
- Sequence (P29317 whole entry): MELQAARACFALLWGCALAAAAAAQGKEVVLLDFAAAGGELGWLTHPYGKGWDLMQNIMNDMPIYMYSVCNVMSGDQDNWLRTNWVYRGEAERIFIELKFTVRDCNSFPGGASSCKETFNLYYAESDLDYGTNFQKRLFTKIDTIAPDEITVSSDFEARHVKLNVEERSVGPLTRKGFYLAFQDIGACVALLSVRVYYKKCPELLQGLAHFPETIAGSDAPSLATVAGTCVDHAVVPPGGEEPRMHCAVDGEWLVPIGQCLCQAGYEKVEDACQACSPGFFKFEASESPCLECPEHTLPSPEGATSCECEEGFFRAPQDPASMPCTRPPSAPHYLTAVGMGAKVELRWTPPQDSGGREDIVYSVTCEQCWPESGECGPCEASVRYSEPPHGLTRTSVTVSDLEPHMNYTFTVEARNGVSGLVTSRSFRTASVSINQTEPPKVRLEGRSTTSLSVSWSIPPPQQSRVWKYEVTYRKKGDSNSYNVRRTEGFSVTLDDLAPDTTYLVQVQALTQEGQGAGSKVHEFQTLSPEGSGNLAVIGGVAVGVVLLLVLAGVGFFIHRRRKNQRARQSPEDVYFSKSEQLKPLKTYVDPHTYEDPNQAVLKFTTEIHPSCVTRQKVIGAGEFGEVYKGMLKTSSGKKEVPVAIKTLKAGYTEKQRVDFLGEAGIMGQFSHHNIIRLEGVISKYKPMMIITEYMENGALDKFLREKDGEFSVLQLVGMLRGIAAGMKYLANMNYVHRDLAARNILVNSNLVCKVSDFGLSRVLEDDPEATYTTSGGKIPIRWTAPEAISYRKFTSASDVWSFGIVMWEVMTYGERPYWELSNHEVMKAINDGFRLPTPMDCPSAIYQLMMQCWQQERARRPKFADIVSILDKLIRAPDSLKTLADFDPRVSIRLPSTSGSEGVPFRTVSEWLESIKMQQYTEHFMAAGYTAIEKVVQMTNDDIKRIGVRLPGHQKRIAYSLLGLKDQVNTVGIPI
- condition_context: at 10 µM
The threshold is inclusive: residual activity of exactly 90% counts as true; values below receive false.

smiles_repr: Fc1ccc(-c2nc3n(c2-c2ccncc2)CCS3)cc1
class_assignment: false

smiles_repr: COc1cc2nccc(Oc3ccc(NC(=O)Nc4cc(C)on4)c(Cl)c3)c2cc1OC
class_assignment: false

smiles_repr: Nc1nc(Nc2ccc(S(N)(=O)=O)cc2)nn1C(=O)c1c(F)cccc1F
class_assignment: false

smiles_repr: CC(C)[C@H](CO)Nc1nc(Nc2cc(N)cc(Cl)c2)c2ncn(C(C)C)c2n1
class_assignment: false

smiles_repr: CC(C)(C)c1nc2c3ccc(F)cc3c3c(=O)[nH]ccc3c2[nH]1
class_assignment: true

smiles_repr: COc1cc2ncnc(Nc3cccc(Cl)c3)c2cc1OC
class_assignment: false

smiles_repr: O=c1cc(N2CCOCC2)oc2c1ccc1ccccc12
class_assignment: true

smiles_repr: O=C(c1ccccc1)c1ccc(N2CCOCC2)cc1O
class_assignment: true

smiles_repr: NC(=O)Nc1sc(-c2ccc(F)cc2)cc1C(N)=O
class_assignment: false

smiles_repr: O=c1cc(N2CCNCC2)oc2c(-c3ccccc3)cccc12
class_assignment: true

###

The reader will find reported residual activity values listed item by item below.
- system_name: Homeodomain-interacting protein kinase 1 (Homo sapiens)
- condition_context: at 1 µM
- Description: Millipore: Percentage of residual kinase activity of HIPK1 at 1uM relative to control. Control inhibitor: Phosphoric acid* at 0.3uM. Buffer: 8 mM MOPS pH 7.0, 0.2 mM EDTA

compound: O=c1cc(N2CCOCC2)oc2c1ccc1ccccc12
residual activity, %: 90

compound: Nc1ncnc2[nH]nc(Nc3ccc(F)cc3)c12
residual activity, %: 108

compound: CCN(CC)CCNC(=O)c1c(C)[nH]c(/C=C2\C(=O)Nc3ccc(Cl)cc32)c1C
residual activity, %: 32

compound: Nc1nc(Nc2ccc(S(N)(=O)=O)cc2)nn1C(=O)c1c(F)cccc1F
residual activity, %: 75

compound: O=C(NC(NC(=S)Nc1ccc(F)c([N+](=O)[O-])c1)C(Cl)(Cl)Cl)C(c1ccccc1)c1ccccc1 (stereo unspecified)
residual activity, %: 99

compound: O=C1Nc2ccc(Cl)cc2/C1=C/c1cc(Cl)c(O)c(Cl)c1
residual activity, %: 93

###

- system_name: Serine/threonine-protein kinase mTOR (Homo sapiens)
- condition_context: at 1 µM
Entries and their measured residual activity follow.

smiles_repr: Oc1cccc(-c2nc(N3CCOCC3)c3oc4ncccc4c3n2)c1
system_name: Serine/threonine-protein kinase mTOR (Homo sapiens)
residual activity, %: -12
//
smiles_repr: NCCNc1ncc(C(N)=O)c(Nc2cccc(C(F)(F)F)c2)n1
system_name: Serine/threonine-protein kinase mTOR (Homo sapiens)
residual activity, %: 117
//
smiles_repr: Nc1ncnc2c1c(-c1ccc(Oc3ccccc3)cc1)cn2C1CCCC1
system_name: Serine/threonine-protein kinase mTOR (Homo sapiens)
residual activity, %: 97
//
smiles_repr: CC(C)c1nn(-c2c(Cl)cccc2Cl)c2nc(Cc3ccc(OCCO)cc3)[nH]c(=O)c12
system_name: Serine/threonine-protein kinase mTOR (Homo sapiens)
residual activity, %: 85

###

- system_name: Inhibitor of nuclear factor kappa-B kinase subunit alpha (Homo sapiens) (UniProt O15111)
- Sequence (O15111 whole entry): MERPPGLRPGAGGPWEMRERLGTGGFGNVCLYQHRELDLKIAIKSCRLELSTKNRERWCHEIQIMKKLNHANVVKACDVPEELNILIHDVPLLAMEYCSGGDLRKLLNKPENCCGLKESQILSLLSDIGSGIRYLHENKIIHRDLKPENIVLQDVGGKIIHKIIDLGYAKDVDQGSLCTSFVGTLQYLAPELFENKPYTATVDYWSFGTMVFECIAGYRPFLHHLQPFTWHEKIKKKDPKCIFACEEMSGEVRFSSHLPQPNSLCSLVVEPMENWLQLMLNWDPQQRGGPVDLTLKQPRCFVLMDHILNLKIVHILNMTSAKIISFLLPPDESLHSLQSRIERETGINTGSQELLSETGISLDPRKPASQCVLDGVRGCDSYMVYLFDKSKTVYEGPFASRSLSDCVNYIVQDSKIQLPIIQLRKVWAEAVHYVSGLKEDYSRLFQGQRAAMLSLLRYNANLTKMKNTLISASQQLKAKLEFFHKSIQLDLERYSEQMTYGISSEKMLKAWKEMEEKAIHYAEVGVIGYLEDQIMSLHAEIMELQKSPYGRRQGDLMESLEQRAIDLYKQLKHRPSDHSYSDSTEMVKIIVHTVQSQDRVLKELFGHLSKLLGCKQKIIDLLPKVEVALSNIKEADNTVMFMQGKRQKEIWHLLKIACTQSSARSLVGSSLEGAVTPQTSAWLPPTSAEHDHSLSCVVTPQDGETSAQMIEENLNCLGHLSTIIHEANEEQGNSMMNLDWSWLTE
- condition_context: at 1 µM
metric_name: residual activity (%)

smiles_repr: CCCCc1c(-c2ccc(O)cc2)[nH]c2nccnc12
val: 90
--
smiles_repr: Cn1c2ccccc2c2c3c(c4c5ccccc5n(CCC#N)c4c21)CNC3=O
val: 48
--
smiles_repr: N#C/C(=C1/Nc2ccccc2S1)c1ccnc(NCCc2cccnc2)n1
val: 113
--
smiles_repr: CCCCc1c(-c2ccc(OC)cc2)[nH]c2nccnc12
val: 87
--
smiles_repr: O=c1c(-c2ccc(F)cc2)c(-c2ccncc2)[nH]n1-c1ccc(Cl)cc1
val: 131
--
smiles_repr: O=C1Cc2c([nH]c3ccc([N+](=O)[O-])cc23)-c2ccccc2N1
val: 114
--
smiles_repr: O=C(CCCc1ccc(-c2ccccc2F)cc1)Nc1ccc(O)cc1
val: 101
--
smiles_repr: CCCC(=O)Oc1ccc2[nH]c(C(=O)c3cc4ccccc4[nH]3)cc2c1
val: 104
--
smiles_repr: O=C1NC(=O)C(c2cn(CCCn3ccnc3)c3ccccc23)=C1Nc1ccccc1
val: 112
--
smiles_repr: Nc1ncnc2c1c(-c1ccc(Oc3ccccc3)cc1)cn2C1CCCC1
val: 104
--
smiles_repr: NCCNc1ncc(C(N)=O)c(Nc2cccc(C(F)(F)F)c2)n1
val: 104
--
smiles_repr: CCOC(=O)c1c(C)[nH]c(/C=C2\C(=O)Nc3ccccc32)c1C
val: 96
--
smiles_repr: O=C1NC(=O)c2c1c1c3ccccc3[nH]c1n1cncc21
val: 63
--
smiles_repr: Nc1n[nH]c2nc3ccccc3nc12
val: 93

###

- system_name: Macrophage-stimulating protein receptor (Homo sapiens) (UniProt Q04912)
- Sequence (Q04912 25-304 limits assumed): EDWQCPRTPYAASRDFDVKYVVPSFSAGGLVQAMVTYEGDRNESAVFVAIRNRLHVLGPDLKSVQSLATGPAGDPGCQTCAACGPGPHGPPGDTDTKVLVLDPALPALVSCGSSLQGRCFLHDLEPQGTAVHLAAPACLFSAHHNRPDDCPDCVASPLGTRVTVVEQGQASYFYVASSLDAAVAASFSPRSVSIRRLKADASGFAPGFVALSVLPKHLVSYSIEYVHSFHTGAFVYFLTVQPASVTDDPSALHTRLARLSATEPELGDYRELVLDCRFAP
- Sequence (Q04912 310-1400 limits assumed): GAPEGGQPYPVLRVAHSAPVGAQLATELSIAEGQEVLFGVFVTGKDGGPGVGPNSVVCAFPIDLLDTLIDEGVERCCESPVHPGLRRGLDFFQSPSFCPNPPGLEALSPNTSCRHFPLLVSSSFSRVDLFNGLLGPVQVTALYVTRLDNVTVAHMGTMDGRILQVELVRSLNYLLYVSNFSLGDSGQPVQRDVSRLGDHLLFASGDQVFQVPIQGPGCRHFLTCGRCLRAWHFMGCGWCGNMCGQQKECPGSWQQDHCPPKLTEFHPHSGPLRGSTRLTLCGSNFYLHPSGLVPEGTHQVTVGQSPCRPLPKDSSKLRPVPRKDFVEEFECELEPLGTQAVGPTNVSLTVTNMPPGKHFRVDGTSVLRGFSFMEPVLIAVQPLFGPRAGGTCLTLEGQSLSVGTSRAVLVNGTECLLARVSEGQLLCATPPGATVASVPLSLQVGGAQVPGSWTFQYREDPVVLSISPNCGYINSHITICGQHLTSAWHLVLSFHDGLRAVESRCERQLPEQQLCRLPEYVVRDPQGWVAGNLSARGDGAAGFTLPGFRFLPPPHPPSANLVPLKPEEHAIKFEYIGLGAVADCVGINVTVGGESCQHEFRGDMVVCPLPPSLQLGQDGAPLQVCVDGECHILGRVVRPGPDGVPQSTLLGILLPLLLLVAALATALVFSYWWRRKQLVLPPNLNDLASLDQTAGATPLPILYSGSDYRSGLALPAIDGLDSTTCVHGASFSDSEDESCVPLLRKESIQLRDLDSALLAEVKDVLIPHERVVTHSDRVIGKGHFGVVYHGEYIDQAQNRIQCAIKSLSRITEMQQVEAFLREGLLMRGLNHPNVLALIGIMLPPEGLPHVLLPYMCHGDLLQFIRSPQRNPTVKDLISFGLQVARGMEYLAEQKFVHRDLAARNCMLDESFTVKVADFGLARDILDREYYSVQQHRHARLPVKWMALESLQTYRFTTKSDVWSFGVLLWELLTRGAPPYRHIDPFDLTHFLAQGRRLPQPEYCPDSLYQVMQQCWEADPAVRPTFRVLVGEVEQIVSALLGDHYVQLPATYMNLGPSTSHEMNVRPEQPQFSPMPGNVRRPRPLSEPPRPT
- condition_context: at 1 µM
Reported residual activity values for the following compounds.

smiles_repr: CC(C)[C@H](CO)Nc1nc(Nc2cc(N)cc(Cl)c2)c2ncn(C(C)C)c2n1
display_unit: %
residual activity: 96

smiles_repr: CC(C)c1nn(-c2c(Cl)cccc2Cl)c2nc(Cc3ccc(OCCO)cc3)[nH]c(=O)c12
display_unit: %
residual activity: 88

smiles_repr: O=C(O)/C=C/c1cc(Br)c(Br)c(Br)c1Br
display_unit: %
residual activity: 56

smiles_repr: CN(C)S(=O)(=O)c1ccc2c(c1)/C(=C/c1cc3c([nH]1)CCCC3)C(=O)N2
display_unit: %
residual activity: 64

smiles_repr: O=C1Nc2ccccc2/C1=C\c1c(Cl)[nH]c2ccccc12
display_unit: %
residual activity: 86

smiles_repr: O=C1Nc2ccc(Cl)cc2/C1=C/c1cc(Cl)c(O)c(Cl)c1
display_unit: %
residual activity: 61

smiles_repr: O=C1NC(=O)c2c1c1c3ccccc3[nH]c1n1cncc21
display_unit: %
residual activity: 73

smiles_repr: CC(C)(C)n1nc(Cc2cccc3ccccc23)c2c(N)ncnc21
display_unit: %
residual activity: 110

smiles_repr: COc1cc2ncnc(Nc3cccc(Cl)c3)c2cc1OC
display_unit: %
residual activity: 116

smiles_repr: N#C/C(=C1/Nc2ccccc2S1)c1ccnc(NCCc2cccnc2)n1
display_unit: %
residual activity: 84

smiles_repr: O=c1cc(N2CCOCC2)oc2c1ccc1ccccc12
display_unit: %
residual activity: 98

###

- system_name: Tyrosine-protein kinase Yes (Homo sapiens) (UniProt P07947)
- Sequence (P07947 2-543 limits assumed): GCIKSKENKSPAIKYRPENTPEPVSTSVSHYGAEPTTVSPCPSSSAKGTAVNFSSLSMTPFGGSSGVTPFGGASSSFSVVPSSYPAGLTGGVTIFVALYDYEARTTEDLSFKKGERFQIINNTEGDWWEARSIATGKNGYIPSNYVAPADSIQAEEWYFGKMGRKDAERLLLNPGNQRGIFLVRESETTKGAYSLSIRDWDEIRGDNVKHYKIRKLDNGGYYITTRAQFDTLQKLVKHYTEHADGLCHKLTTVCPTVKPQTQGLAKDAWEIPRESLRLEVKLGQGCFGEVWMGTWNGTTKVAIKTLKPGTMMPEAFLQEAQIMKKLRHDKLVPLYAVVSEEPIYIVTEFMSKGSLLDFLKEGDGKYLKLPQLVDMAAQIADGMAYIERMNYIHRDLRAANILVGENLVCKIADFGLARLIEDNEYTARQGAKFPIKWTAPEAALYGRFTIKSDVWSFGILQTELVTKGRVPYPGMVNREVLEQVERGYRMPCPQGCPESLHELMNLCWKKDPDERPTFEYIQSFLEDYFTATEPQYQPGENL
- condition_context: at 1 µM
metric_name: residual activity (%)

smiles_repr: Nc1ncnc2c1c(-c1ccc(Oc3ccccc3)cc1)cn2C1CCCC1
display_unit: %
val: 0
//
smiles_repr: COc1cc2c(cc1OC)-c1n[nH]c(Nc3cccc(F)c3)c1C2
display_unit: %
val: 17
//
smiles_repr: CCCCc1c(-c2ccc(O)cc2)[nH]c2nccnc12
display_unit: %
val: 56
//
smiles_repr: O=C1Cc2c([nH]c3ccc([N+](=O)[O-])cc23)-c2ccccc2N1
display_unit: %
val: 56
//
smiles_repr: Nc1ncnc2[nH]nc(Nc3ccc(F)cc3)c12
display_unit: %
val: 93
//
smiles_repr: CC(C)(C)n1nc(Cc2cccc3ccccc23)c2c(N)ncnc21
display_unit: %
val: 5

From: ChEMBL document CHEMBL2218924
